B1: NECAB1 (parent)
chain: NLDTEELCEYFSQHLGEYENVLAA

variants of: B1; assay: protein stability index of a GFP-peptide fusion (GPS, HEK-293T) (PSI 1-6); higher = more stable; settings: c terminus: a fixed tail appended;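 further: lentivirally expressed fusions sorted by FACS into six bins by GFP to DsRed ratio, PSI derived from sequencing read proportions per bin multiplied by bin number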
Measured protein stability index, listed per entry for reference.
Just the number, please.

Examples from the recorded data:
C8H; 4.07
F11C; 4.03
L2F; 3.05
N20I; 1.59
H14M; 2.98
E9R; 1.97

`V21H` has a reported protein stability index of 3.14

# protein stability index of `V21P` = 4.46

Short answer for `L15N` : protein stability index was 4.48

Quick note, protein stability index for `D3Y` landed at 1.94

protein stability index reported for this variant `E17W` : 2.11

So for `A24D` , the logged protein stability index turned out to be 3.98

Sure, the documented protein stability index for `L7E` is 4.77

Note to self: protein stability index recorded for `A24M` was 1.92

Item: `N1M` | protein stability index: 3.17

protein stability index reading for `A23W` : 1.91

The recorded protein stability index for `V21A` is 2.9

GET /value?item= `F11N` &field=protein stability index returns 5.01
